Recorded SSC by entry
# Test system: Lymphoma cell line
# methodNotes: Ability to reverse the multidrug resistance (MDR) of mouse Lymphoma cells, by Granulation (SSC) at 20 ug/mL.
# Type: functional
measuredAttribute: SSC

compound=CC(=O)O[C@@H]1[C@@H](OC(C)=O)C(C)(C)/C=C/[C@H](C)C(=O)[C@@]2(OC(C)=O)C[C@@H](C)[C@H](OC(=O)c3ccccc3)/C2=C\[C@](C)(OC(C)=O)[C@@H]1OC(C)=O testedon="Lymphoma cell line" recordednumber=228.49
compound=CC(=O)O[C@@H]1[C@@H](OC(C)=O)C(C)(C)/C=C/[C@H](C)[C@H](OC(C)=O)[C@@]2(OC(C)=O)C[C@@H](C)[C@H](OC(=O)c3ccccc3)[C@@H]2/C=C(\C)[C@@H]1O testedon="Lymphoma cell line" recordednumber=167.73
compound=C=C1[C@H](OC(C)=O)C[C@@H](OC(=O)c2cccnc2)C(C)(C)/C=C/[C@@H](C)C(=O)[C@@]2(OC(C)=O)C[C@H](C)[C@H](OC(C)=O)[C@@H]2[C@H]1OC(C)=O testedon="Lymphoma cell line" recordednumber=297.54
compound=C=C1[C@H](OC(=O)C(C)C)[C@H](OC(=O)C(C)C)[C@@H](OC(C)=O)C(C)(C)[C@@H]2O[C@H]2[C@@H](C)C(=O)[C@@]2(OC(C)=O)C[C@@](C)(OC(C)=O)[C@H](OC(C)=O)[C@@H]2[C@H]1OC(C)=O testedon="Lymphoma cell line" recordednumber=176.12
compound=C=C1[C@H](OC(C)=O)[C@@H](OC(C)=O)[C@@H](OC(C)=O)C(C)(C)/C=C/[C@H](C)[C@H](OC(C)=O)[C@@]2(O)C[C@@](C)(OC(C)=O)[C@H](OC(=O)c3ccccc3)[C@@H]2[C@H]1OC(C)=O testedon="Lymphoma cell line" recordednumber=239.54
compound=C=C1[C@H](OC(=O)C(C)C)[C@@H](OC(C)=O)[C@@H](OC(C)=O)C(C)(C)/C=C/[C@@H](C)C(=O)[C@@]2(OC(C)=O)C[C@@](C)(OC(C)=O)[C@H](OC(C)=O)[C@@H]2[C@H]1OC(C)=O testedon="Lymphoma cell line" recordednumber=254.87
compound="CC(=O)O[C@@H]1[C@@H](OC(C)=O)C(C)(C)/C=C/[C@H](C)C(=O)C2(OC(C)=O)C[C@@](C)(O)[C@H](OC(=O)c3ccccc3)/C2=C\\[C@](C)(OC(C)=O)[C@@H]1OC(C)=O (stereo partly specified)" testedon="Lymphoma cell line" recordednumber=231.39
compound=CC(=O)O[C@@H]1[C@@H](OC(C)=O)C(C)(C)/C=C/[C@H](C)[C@H](OC(C)=O)[C@@]2(OC(C)=O)C[C@H](C)[C@H](OC(=O)c3ccccc3)/C2=C\[C@](C)(O)[C@@H]1OC(C)=O testedon="Lymphoma cell line" recordednumber=175.29
compound=C=C1[C@H](OC(C)=O)[C@@H](O)[C@@H](OC(=O)c2cccnc2)C(C)(C)/C=C/[C@H](C)[C@H](OC(C)=O)[C@@]2(O)C[C@@](C)(OC(C)=O)[C@H](OC(=O)c3ccccc3)[C@@H]2[C@H]1OC(C)=O testedon="Lymphoma cell line" recordednumber=291.38
compound=C=C1[C@H](OC(C)=O)CC(=O)C(C)(C)/C=C/[C@@H](C)C(=O)[C@@]2(OC(C)=O)C[C@@](C)(OC(C)=O)[C@H](OC(C)=O)[C@@H]2[C@H]1OC(C)=O testedon="Lymphoma cell line" recordednumber=307.84
compound=CC(=O)O[C@@H]1[C@@H](OC(C)=O)C(C)(C)/C=C/[C@H](C)C(=O)[C@@]2(OC(C)=O)C[C@@H](C)[C@H](OC(=O)c3ccccc3)/C2=C\[C@](C)(O)[C@@H]1OC(C)=O testedon="Lymphoma cell line" recordednumber=232.7
